Data provenance: PubChem BioAssay (NCI)

system: SF-268 CNS; assay: NCI tumour cell line growth inhibition, 48 h
Property Label: GI50

Compound	GI50
CCCCCCc1cc2cc(-c3nc4ccccc4[nH]3)c(=Nc3ccccc3C)oc2cc1O	2650 nM

[ask] # returns recorded GI50 (system: SF-268 CNS) for "COC(=O)C1=C(C)NC(C)=C(C(=O)OC)C1/C=C(\Cl)c1ccc(Cl)c(Cl)c1"
[reply] 13100 nM

[ask] # returns recorded GI50 (system: SF-268 CNS) for "CC(C)[C@H]1CC[C@H]2[C@@H](CC[C@H]3[C@](C)(CN)CCC[C@]23C)C1"
[reply] 2360 nM

###

test system: OVCAR-8 ovarian; assay: NCI tumour cell line growth inhibition, 48 h
Property Label: TGI

Observe how each entry below is paired with its result.
Compound	TGI
CCOc1ccccc1NC(=O)c1cc2ccccc2cc1O	11.3 µM
CC1=NNC(=O)C1C1CC(c2c[nH]c3ccccc23)=NNC1=S (stereo not drawn)	> 100 µM

[ask] State the recorded TGI for this entry: CC1OC(n2ccc(=O)[nH]c2=O)C=C(OC(=O)c2ccccc2)C1=O (stereo not drawn)
[reply] > 100 µM

###

Recorded TGI by entry
test system: OVCAR-8 ovarian; assay: NCI tumour cell line growth inhibition, 48 h

[ask] State the recorded TGI for this entry: "COc1cc2c3c(n(CCCN(CCN)CCCn4c5c(c6cc(OC)c(OC)cc6c4=O)C(=O)c4cc6c(cc4-5)OCO6)c(=O)c2cc1OC)-c1cc2c(cc1C3=O)OCO2"
[reply] > 42.2 µM

[ask] State the recorded TGI for this entry: "Cc1cc2cc3cc(C)c(N(C)C)cc3[n+](C)c2cc1N(C)C"
[reply] 14.7 µM

[ask] State the recorded TGI for this entry: "CC(=O)Nc1ccc(/C=C/C(=O)c2ccccc2)cc1"
[reply] 30.4 µM

[ask] State the recorded TGI for this entry: "O=C(Nc1nc(C23CC4CC(CC(C4)C2)C3)cs1)c1c(O)c2ccccc2[nH]c1=O"
[reply] > 100 µM

[ask] State the recorded TGI for this entry: Cc1ccc(NP(=O)(Oc2ccccc2)N(CCCl)CCCl)cc1 (stereo unspecified)
[reply] > 100 µM

[ask] State the recorded TGI for this entry: "N#Cc1n[nH]n(C2CCCCC2)c1=O"
[reply] > 100 µM

###

Recorded TGI by entry
test system: RXF 393 renal; assay: NCI tumour cell line growth inhibition, 48 h

Compound	Tgt	TGI
CN(C)Cc1cc(N=Nc2cccc(Cl)c2)ccc1O	RXF 393 renal	20.8 µM
Cc1cc2c(cc1Cl)SC(c1ccccc1)C(=O)NS2(=O)=O (centres undefined)	RXF 393 renal	> 100 µM
O=C(C=P(c1ccccc1)(c1ccccc1)c1ccccc1)c1cccc(-c2cccc([N+](=O)[O-])c2)c1	RXF 393 renal	> 100 µM
CC[O-].CC[O-].O=C([CH-]C(=O)c1cccnc1)c1ccccc1.O=C([CH-]C(=O)c1cccnc1)c1ccccc1.[Ti+4]	RXF 393 renal	70.4 µM
Cc1c(C#N)c2ccccc2c2nc3ccccc3n12	RXF 393 renal	> 100 µM

Please find the next compound below.
[ask] State the recorded TGI for this entry: "CC(C)c1c(C(=O)Nc2ccccc2)c(-c2ccccc2)c(-c2ccc(F)cc2)n1CC[C@@H]1CC=CC(=O)O1"
[reply] 3.13 µM

###

Recorded TGI by entry
test system: SN12C renal; experiment: NCI tumour cell line growth inhibition, 48 h

Observe how each entry below is paired with its result.
Compound	TGI
Clc1cc2c(cc1Cl)Oc1cc(Cl)c(Cl)cc1O2	> 0.625 µM
O=c1cc(-c2ccc(O)cc2)n(C2CC2)c2ccccc12	32.3 µM
N#Cc1c2c(c(Nc3cccc(C(F)(F)F)c3)n3c1nc1ccccc13)CCC2	> 100 µM
O=C(c1ccco1)N(Cc1ccco1)C(=S)Nc1ccccc1	45.4 µM
COc1ccc(/C=C/c2sc3ccccc3[n+]2CCCCI)cc1OC	> 10 µM
CCOc1ccc(-c2cnnn2-c2nonc2-n2cccc2)cc1	> 100 µM
N#CCCN(c1ccc(/C=C2\N=C(Cc3ccccc3)OC2=O)cc1)S(=O)(=O)c1ccccc1	> 100 µM
C=CCc1cc(-c2cc(CC=C)c(O)c(CNC)c2)cc(CNC)c1O	31.3 µM

[ask] State the recorded TGI for this entry: "COc1cc(/C=N/n2c(Cc3ccc(Cl)cc3)n[nH]c2=O)cc(OC)c1OC"
[reply] > 100 µM

[ask] State the recorded TGI for this entry: "Cn1c(N)c(C(N)=O)[nH]c1=S"
[reply] > 100 µM

[ask] State the recorded TGI for this entry: "Nc1cc(C(=O)O)[nH]c(=O)n1"
[reply] > 100 µM

[ask] State the recorded TGI for this entry: "CCOC(=O)C[C@@H]1C2(C=C[C@@]13CO3)OCC(C)(C)CO2"
[reply] > 100 µM

[ask] State the recorded TGI for this entry: COc1ccc(N(CN2C(=O)CCC2C(=O)O)C(C)=O)cc1 (stereo unspecified)
[reply] > 100 µM

[ask] State the recorded TGI for this entry: "N#C/C(=N\Nc1ccc(Cl)cc1)C(=O)Nc1cc(-c2ccccc2)nn1-c1ccccc1"
[reply] > 100 µM

[ask] State the recorded TGI for this entry: "O=C1[C@@H]2C(c3ccc(Cl)cc3Cl)=NO[C@@H]2C(=O)N1c1ccc(Cc2ccc(N3C(=O)[C@H]4C(c5ccc(Cl)cc5Cl)=NO[C@H]4C3=O)cc2)cc1"
[reply] > 100 µM

[ask] State the recorded TGI for this entry: CC1(C)C2CCC(CN)(C2)C1O (stereo unspecified)
[reply] > 100 µM

[ask] State the recorded TGI for this entry: "O=C(CCC(=O)Nc1cccc(Cl)c1)CC(=O)c1ccc(F)cc1"
[reply] > 100 µM
